target: T1, Mouse Plk1 Polo box domain (Plk1-PBD, amino acid residues 367-603) (mouse, UniProt Q07832 367-603); experiment: ITC; phosphorylated peptide (1.2 mM) injected into Plk1-PBD (0.1 mM) in the cell; 15 °C; 20 mM Tris-Cl pH 8.0, 300 mM NaCl, 3 mM DTT; one-site binding model; conditions: both partners purified
T1 construct: Polo-like kinase 1 (Plk1), mouse, polo box domain, residues 367-603; TEV site ENLYFQ/S between the His6 tag and the PBD; cleavage between Q and S should leave a Ser before residue 367 (surmised); also called polo box domain of Polo-like kinase 1; source: E. coli BL21 (DE3), purified (Ni-NTA, TEV digestion, Superdex 75 gel filtration); not shown: His6, N-terminal, cleaved
T1 sequence (Q07832 367-603): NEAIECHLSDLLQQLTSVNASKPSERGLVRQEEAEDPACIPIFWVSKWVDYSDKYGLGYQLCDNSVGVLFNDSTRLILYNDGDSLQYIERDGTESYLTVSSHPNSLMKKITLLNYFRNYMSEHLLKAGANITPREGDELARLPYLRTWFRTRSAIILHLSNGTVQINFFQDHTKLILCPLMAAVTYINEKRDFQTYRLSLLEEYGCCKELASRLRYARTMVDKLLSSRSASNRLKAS
Non-standard residues stand in square brackets, D forms with d. No end group written: not given here. pT = C[C@@H](OP(=O)(O)O)[C@H](N)C(=O)O
Recorded Endpoint: Kd
Form field: result (number plus unit)

Lab book: Kd of FSQHKTS[pT]I-NH2 (Made on Rink amide resin, so probably a C-terminal amide (surmised); source: synthetic peptide (Fmoc SPPS, Rink amide resin, RP-HPLC)) [Phosphorylated Emi2 169-177 peptide (phospho-Thr176)] noted as 29.6 µM

All figures here come from paper PMC4602232.
